molecular target: rat 5-HT7 receptors (Rattus norvegicus (Rat), UniProt P32305); experiment: r5-HT7 competitive radioligand binding assay ([3H]5-CT); conditions: membrane fractions of HEK-293 cells recombinantly expressing rat 5-HT7
Sequence (P32305 1-435): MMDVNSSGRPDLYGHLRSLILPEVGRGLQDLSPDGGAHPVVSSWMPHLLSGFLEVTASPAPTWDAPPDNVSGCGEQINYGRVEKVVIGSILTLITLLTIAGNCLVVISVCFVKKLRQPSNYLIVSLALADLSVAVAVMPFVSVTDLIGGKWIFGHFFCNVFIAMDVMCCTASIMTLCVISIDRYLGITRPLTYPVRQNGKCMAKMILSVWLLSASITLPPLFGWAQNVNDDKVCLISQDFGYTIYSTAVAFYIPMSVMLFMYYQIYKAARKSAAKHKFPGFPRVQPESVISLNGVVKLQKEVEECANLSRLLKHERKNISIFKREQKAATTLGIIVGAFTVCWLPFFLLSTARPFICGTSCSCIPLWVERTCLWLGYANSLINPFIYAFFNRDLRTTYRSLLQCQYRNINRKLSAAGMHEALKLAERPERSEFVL
Where a name gives a salt, the structure may show the parent alone.
measure: Ki (nM)
Numbers only, in nM.

{"columns": ["compound", "Ki (nM)"],
 "data": [
  ["COc1ccc(-c2ccccc2)cc1C1CCNC1 (racemic)", 130],
  ["COc1ccc(-c2ccccc2C(F)(F)F)cc1OC1CCNCC1", 59],
  ["COc1ccc(-c2ccccc2)cc1C1CCN(C)C1 (racemic)", 150],
  ["Cc1ccccc1-c1ccc(Cl)c(OC2CNC2)c1 [Example 26, trifluoroacetate]", 15.5],
  ["Cc1cc(-c2ccc(Cl)cc2OC2CNC2)ccc1F", 470]
]}

# lookup: Ki of c1ccc(-c2ccccc2C2CCNC2)cc1 (racemic) [Example 51, (±)-3-Biphenyl-2-yl-pyrrolidine] 120
